Target: T1, human Protein S (human, UniProt P07225 42-676)
T1 construct: also called ProS; ProS1
T1 sequence: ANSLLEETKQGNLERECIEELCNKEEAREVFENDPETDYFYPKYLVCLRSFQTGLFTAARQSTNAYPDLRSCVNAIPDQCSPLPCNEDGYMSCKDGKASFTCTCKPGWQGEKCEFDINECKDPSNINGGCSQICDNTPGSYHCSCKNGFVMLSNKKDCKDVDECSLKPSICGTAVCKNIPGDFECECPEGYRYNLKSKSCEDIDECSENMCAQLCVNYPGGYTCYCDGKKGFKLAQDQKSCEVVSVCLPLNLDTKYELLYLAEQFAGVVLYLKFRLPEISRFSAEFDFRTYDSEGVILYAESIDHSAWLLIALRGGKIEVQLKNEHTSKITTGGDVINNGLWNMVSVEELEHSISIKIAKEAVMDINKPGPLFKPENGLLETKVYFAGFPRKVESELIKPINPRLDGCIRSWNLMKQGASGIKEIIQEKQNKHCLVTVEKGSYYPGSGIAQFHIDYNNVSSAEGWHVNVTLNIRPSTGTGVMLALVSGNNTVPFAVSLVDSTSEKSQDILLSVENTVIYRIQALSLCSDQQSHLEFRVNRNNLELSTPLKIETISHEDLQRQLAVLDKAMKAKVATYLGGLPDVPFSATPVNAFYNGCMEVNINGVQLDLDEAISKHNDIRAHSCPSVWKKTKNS
Assay: ELISA; plate coated with human Protein S; 1 µg/ml antibody; 1 mM calcium chloride
Description: Calcium dependence of binding was determined using an ELISA based method. Briefly, high binding ELISA plates were coated with human Protein S. Then, buffer containing 1 μg/ml of antibody was applied to the well with either buffer containing 1 mM EDTA or 1 mM calcium chloride.
Recorded Metric: Binding to Protein S in CaCl2 (OD)
Just the number in OD, nothing appended.

Before answering, review these 4 worked examples.
Per the records, this binder ( Antibody 24 (antibody, V domains shown, Human variable region with rat Fc) VH: QVQLQESGPGLVKPSETLSLTCGVSGGSISSTNWWSWVRQPPGKGLEWIGEIYQTGSTDYDPSLKSRVTISIDKSKNQFSLKLYSVTAADTAVYYCARRFGELDYWGQGTLVTVSS VL: EIVMTQSPATLSVSPGERATLSCRASQSVTSNLAWYQQKPGQAPRLLIYDASTRATGIPARFSGSGSGTEFTLTISSLQSEDFAIYYCQQYNNWPTFGQGTRLEIK ) has Binding to Protein S in CaCl2 (OD) equal to 1.72

Binding to Protein S in CaCl2 (OD) recorded for this binder, Antibody 42 (antibody, V domains shown, Human variable region with rat Fc) VH: QVQLVQSGSEVKKPGASVKVSCKASGYTFTNYYIHWVRQAPGQGLEWMGIITPSGGTTSYAQKFQGRVTMTRDTSTNTVYMGLSSLRSEDTAMYYCARAGVQLDRRGWFDPWGQGTLVTVSS VL: SYELTQPPSVSVSPGQTASITCSGDKLGDKYVFWYQQKPGQSPVLVIYQDSKRPSGIPERFSGSNSGNTATLTISGTQTMDEADYYCQAWDSSTVGFGGGTKLAVL , is 0.67

Form: binder = Antibody 13 (antibody, V domains shown, Human variable region with rat Fc) VH: QVQLVQSGAEVKKPGSSVKVSCKVSGGTFSSYSISWVRQAPGQGLEWMGGIIPIFGTTNYAQKFQGRVTITADESTSTAYMDLSSLKSEDTAMYYCEGGRVGADFDYWGQGTLVTVSS VL: SSDLTQGPAVSVALGQTVRITCQGDSLRNYYASWYQQKPGQAPVPVIYGKNDRPSGIPDRFSGSISGNTASLTITGAQAEDEAHYYCNSRDSSGNHVVFGGGTKLTVL ; Binding to Protein S in CaCl2 (OD) = 1.77

The reported Binding to Protein S in CaCl2 (OD) of the binder Antibody 36 (antibody, V domains shown, Human variable region with rat Fc) VH: EVQLVESGGGLVKPGGSLRLSCAASGFTFSSYNMNWVRQAPGRGLDWVSSISSSSSYIYYADSVKGRFTISRDNAKNSLYLQMNTLRAEDTAVYYCARDEEWELLTGFDYWGQGTLVTVSS VL: DIQMTQSPSSLSASVGDRVTITCRASQGINNYLAWFQQKPGKAPKSLIYAASNLQSGVPLKFSGSGSGTDFTLTISSLQPEDFATYYCQQYNSYPITFGQGTRLEIK was 0.6

Now look at this one.
Sample Antibody 16 (antibody, V domains shown, Human variable region with rat Fc) VH: QVQLVESGGGVVQPGRSLRLSCAASGFTFSTYGFHWVRQPPGKGLEWVAVIYYDGINKYYADSVKGRFTISRDNSKNTLFLQMNSLRAEDTAVYYCAESDLDYWGQGTLVTVSS VL: EIVLTQSPATLSLSPGERATLSCRASQSVSIYLAWYQQKPGQAPRLLIYDASNRATGIPARFSGSGSGTDFTLTISSLEPEDFAVYYCQQRSNWPLTFGPGTKVDIK ; Binding to Protein S in CaCl2 (OD) observed: 1.95
